assay: Cytotoxicity on LLC-MK2 cells; format: cell-based, monkey; settings: monkey, LLC-MK2 monkey kidney epithelial cells; LLC-MK2 cells; read-out: Cytotoxicity against LLC-MK2 CC50

- Molecule: "CC[C@H](CCC(C)C1CCC2C3CC=C4C[C@@H](O[C@@H]5O[C@H](CO)[C@@H](O)[C@H](O)[C@H]5O)CC[C@]4(C)C3CC[C@]12C)C(C)C (stereo partly shown) [DES5]"
  CC50: "> 100 µg/mL"

====

test system: 3D7 (chloroquine-susceptible) strain of Plasmodium falciparum; assay: Antiplasmodial screen, parasite lactate dehydrogenase (pLDH) assay, 3D7 strain; format: cell-based; details: P. falciparum 3D7, pLDH assay
Measurement type: Activity against 3D7 IC95 (µg/mL)

- Compound: "C[C@@H]1O[C@@H](Oc2c(-c3ccc(O)cc3)oc3cc(O)cc(O)c3c2=O)[C@H](O)[C@H](O)[C@H]1O"
  Measurement type: "Activity against 3D7 IC95"
  Unit: "µg/mL"
  Data value: 13.64
- Compound: "CO[C@H]1O[C@@H]2O[C@@]3(C)CC[C@H]4[C@H](C)CC[C@@H]([C@H]1C)[C@@]24OO3 [ART, artemether, reference compound]"
  Measurement type: "Activity against 3D7 IC95"
  Unit: "µg/mL"
  Data value: 0.08
- Compound: "O=c1c(O)c(-c2ccc(O)c(O)c2)oc2cc(O)cc(O)c12"
  Measurement type: "Activity against 3D7 IC95"
  Unit: "µg/mL"
  Data value: 15.19
- Compound: "C=C[C@H]1C[N@@]2CC[C@H]1C[C@H]2[C@H](O)c1ccnc2ccc(OC)cc12 [QN, Quinine sulphate, reference compound]"
  Measurement type: "Activity against 3D7 IC95"
  Unit: "µg/mL"
  Data value: 0.48
- Compound: "COC(=O)c1cc(O)c(O)c(O)c1 [DES4, methyl 3,4,5-trihydroxybenzoate]"
  Measurement type: "Activity against 3D7 IC95"
  Unit: "µg/mL"
  Data value: 2.58
- Compound: "CC[C@H](CCC(C)C1CCC2C3CC=C4C[C@@H](O[C@@H]5O[C@H](CO)[C@@H](O)[C@H](O)[C@H]5O)CC[C@]4(C)C3CC[C@]12C)C(C)C (stereo partly shown)"
  Measurement type: "Activity against 3D7 IC95"
  Unit: "µg/mL"
  Data value: 4.38
- Compound: "C[C@@H]1O[C@@H](Oc2c(-c3ccc(O)c(O)c3)oc3cc(O)cc(O)c3c2=O)[C@H](O)[C@H](O)[C@H]1O"
  Measurement type: "Activity against 3D7 IC95"
  Unit: "µg/mL"
  Data value: 18.53

====

system: 3D7 (chloroquine-susceptible) strain of Plasmodium falciparum; experiment: Antiplasmodial screen, parasite lactate dehydrogenase (pLDH) assay, 3D7 strain; assay type: cell-based; details: Plasmodium falciparum, 3D7, P. falciparum 3D7, pLDH assay; read-out: Activity against 3D7 IC50

- Molecule: "C=C[C@H]1C[N@@]2CC[C@H]1C[C@H]2[C@H](O)c1ccnc2ccc(OC)cc12 [QN, Quinine sulphate, reference compound]"
  Unit: "µg/mL"
  Result qualifier: "="
  IC50: 0.13
- Molecule: "COC(=O)c1cc(O)c(O)c(O)c1 [DES4, methyl 3,4,5-trihydroxybenzoate]"
  Unit: "µg/mL"
  Result qualifier: "="
  IC50: 0.37
- Molecule: "CO[C@H]1O[C@@H]2O[C@@]3(C)CC[C@H]4[C@H](C)CC[C@@H]([C@H]1C)[C@@]24OO3 [ART, artemether, reference compound]"
  Unit: "µg/mL"
  Result qualifier: "="
  IC50: 0.02
- Molecule: "O=c1c(O)c(-c2ccc(O)c(O)c2)oc2cc(O)cc(O)c12 [DES3, Quercetin]"
  Unit: "µg/mL"
  Result qualifier: "<"
  IC50: 10
